Assay: enzyme kinetic measurements with purified protein
Format: biochemical
Details: relative values
Can you tell me Vmax Fluazifop for the items I'm about to list?

For record MON-HT51: engineered oxygenase protein, amino acid sequence SEQ ID NO:1 (protein) MHAALSPLSQRFERIAVQPLTGVLGAEITGVDLREPLSDSTWNEILDAFHTYQVIYFPGQAITNEQHIAFSRRFGPVDPVPLLKSIEGYPEVQMIRREANESGRVIGDDWHTDSSFLDAPPAAVVMRAIDVPEHGGDTGFLSMYTAYDALSDGLKKLISGLNVVHSATRVFGSLYQAQNRRFSNTSVKVMDVADGDRETVHPLVVTHPGSGRKGLYVNQVYCQRIEGMSEKESEPLLSFLFAHATKPEFTCRVRWKKDQVLVWDNLCTMHYAINDYHGQTRILHRTTVGGVRPAR the listed Vmax Fluazifop is 12

Vmax Fluazifop reading for MON-HT53: engineered oxygenase protein, amino acid sequence SEQ ID NO:7 (protein) MHAALSPLSQRFERIAVQPLTGVLGAEITGVDLREPLSDSTWNEILDAFHTYQVIYFPGQAITNEQHIAFSRRFGPVDPVPLLKSIEGYPEVQMIRREANESGRVIGDDWHSDSTFLDAPPAAVVMRAIDVPEHGGDTGFLSMYTAYDALSDGLKKLISGLNVVHSATRVFGSLYQAQNRRFSNTSVKVMDVDAGDRETVHPLVVTHPGSGRKGLYVNQVYCQRIEGMSEKESEPLLSFLFAHATKPEFTCRVRWKKDQVLVWDNLCTMHYAINDYHGQTRILHRTTVGGVRPAR : 40

Measured Vmax Fluazifop, MON-HT55: engineered oxygenase protein, amino acid sequence SEQ ID NO:11 (protein) MHAALSPLSQRFERIAVQPLTGVLGAEITGVDLREPLDDSTWNEILDAFHTYQVIYFPGQAITNEQHIAFSRRFGPVDPVPLLKSIEGYPEVQMIRREANESGRVIGENWHTDSTFLDAPPAAVVMYAKEIPPYGGDTLFTSMYTAWETLSPTMQATIEGLNVVHSATRVFGSLYQAQNRRFSNTSVKVMDVDAGDRETVHPLVVTHPETGRKGLYVNQVYCQRIEGMSEKESEPLLSFLFAHATKPEFTCRVRWQEGDVLVWDNLCTQHYAVPDYAGKFRYLTRTTVGGVRPAR : 320
